Every entry's value here was drawn from patent US12428415B2.

- experimental target: Human Recombinant Matriptase 2 (Homo sapiens)
- Construct: purchased Enzo Life Sciences (an in-house preparation was also used) ALX-201-752-1
- measurement protocol: Matriptase 2 fluorescence based inhibition assay, Method B (50 mM TRIS pH 7.5, 150 mM NaCl, 0.01% gelatin)
- Type: biochemical
- assay context: 1 uM compound; Assay Used = B; read-out: Mar-2 % inhibition at 1 uM
For each of the molecules below, state its inhibition at 1 µM.

I have 4 molecules here; please give me inhibition at 1 µM for each one.
1. N=C(N)c1ccc2cc(C(=O)N[C@H]3CC[C@H](N)CC3)n(CCc3cccc4ccccc34)c2c1
2. N=C(N)c1ccc2cc(C(=O)O)n(Cc3cc(S(N)(=O)=O)cc4ccccc34)c2c1
3. N=C(N)c1ccc2cc(C(=O)Nc3ccc(NC(=O)c4ccccn4)cc3)n(Cc3cccc4ccccc34)c2c1
4. N=C(N)c1ccc2cc(C(=O)N(CCO)C3CCC(N)CC3)n(Cc3cccc4ccccc34)c2c1 (stereo not shown)

25 to 50%
25 to 50%
50 to 75%
50 to 75%

----------
Can you tell me inhibition at 1 µM for the items I'm about to list?
- experimental target: Human Recombinant Matriptase 2 (Homo sapiens)
- Construct: purchased Enzo Life Sciences (an in-house preparation was also used) ALX-201-752-1
- Sequence (Q8IU80 1-811): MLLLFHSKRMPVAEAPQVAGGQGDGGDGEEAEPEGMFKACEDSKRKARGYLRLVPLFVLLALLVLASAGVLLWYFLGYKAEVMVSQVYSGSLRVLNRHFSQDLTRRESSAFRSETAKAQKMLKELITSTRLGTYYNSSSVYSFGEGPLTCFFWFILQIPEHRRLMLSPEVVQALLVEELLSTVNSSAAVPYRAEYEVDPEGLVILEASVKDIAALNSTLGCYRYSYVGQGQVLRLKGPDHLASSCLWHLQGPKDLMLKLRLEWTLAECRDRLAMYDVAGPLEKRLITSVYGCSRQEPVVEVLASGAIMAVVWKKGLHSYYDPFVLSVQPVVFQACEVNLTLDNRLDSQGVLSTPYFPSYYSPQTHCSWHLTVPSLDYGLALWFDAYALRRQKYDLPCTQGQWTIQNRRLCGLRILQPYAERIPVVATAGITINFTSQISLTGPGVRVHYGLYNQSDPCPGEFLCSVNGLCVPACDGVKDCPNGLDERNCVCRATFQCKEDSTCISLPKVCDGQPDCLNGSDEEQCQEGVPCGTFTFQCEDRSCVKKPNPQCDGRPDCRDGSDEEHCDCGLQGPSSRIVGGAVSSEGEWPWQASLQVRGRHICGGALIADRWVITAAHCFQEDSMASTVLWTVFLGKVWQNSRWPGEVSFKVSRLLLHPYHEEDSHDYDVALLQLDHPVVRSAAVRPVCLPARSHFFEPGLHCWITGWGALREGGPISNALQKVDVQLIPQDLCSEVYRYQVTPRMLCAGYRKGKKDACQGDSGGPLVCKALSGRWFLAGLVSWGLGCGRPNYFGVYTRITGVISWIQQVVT
- measurement protocol: Matriptase 2 fluorescence based inhibition assay, Method A (100 mM TRIS pH 9, 1 mg/mL BSA)
- Format: biochemical
- assay context: 1 uM; Assay Used A; read-out: Mar-2 % inhibition at 1 uM

See these solved cases before continuing.
compound	quantity name	result
N=C(N)c1ccc2cc(C(=O)Nc3ccc(F)c(Br)c3)n(Cc3ccc(C(N)=O)cc3)c2c1	inhibition at 1 µM	0 to 25%
C[C@H](NC(=O)c1cc2ccc(C(=N)N)cc2n1Cc1ccc(C(N)=O)cc1)c1ccc(F)c(F)c1	inhibition at 1 µM	0 to 25%
CC(C)(C)c1ccc(Cn2c(C(=O)NC3CCC(N)CC3)cc3ccc(C(=N)N)cc32)cc1 (centres unmarked)	inhibition at 1 µM	50 to 75%
N=C(N)c1ccc2cc(C(=O)Nc3cccc(C(F)(F)F)c3)n(Cc3ccc(C(N)=O)cc3)c2c1	inhibition at 1 µM	0 to 25%
CC1CCC(NC(=O)c2cc3ccc(C(=N)N)cc3n2CCS(=O)(=O)c2ccccc2)CC1 (centres unmarked)	inhibition at 1 µM	0 to 25%

# batch size: 2; output inhibition at 1 µM per entry
1. N=C(N)c1ccc2cc(C(=O)NCc3cccc(F)c3)n(Cc3ccc(C(N)=O)cc3)c2c1
2. N=C(NC(=O)OCc1ccccc1)c1ccc2cc(C(=O)Nc3cccc(N4CCCC4)c3)n(Cc3ccc(C(N)=O)cc3)c2c1

0 to 25%
0 to 25%

The following compounds each have a reported value; give each one's inhibition at 1 µM.
1. N=C(N)c1ccc2cc(C(=O)Nc3cccc(-n4cccn4)n3)n(Cc3ccc(C(N)=O)cc3)c2c1
2. CCOC(=O)NC(=N)c1ccc2cc(C(=O)Nc3cccc(N4CCCC4)c3)n(Cc3ccc(C(N)=O)cc3)c2c1
3. N=C(N)c1ccc2cc(C(=O)NC[C@H]3CCCNC3)n(CCS(=O)(=O)c3ccccc3)c2c1
4. N=C(N)c1ccc2cc(C(=O)N[C@H]3CC[C@H](N)CC3)n(CCc3cccc(Br)c3)c2c1

["0 to 25%", "0 to 25%", "25 to 50%", "25 to 50%"]

----------
Can you tell me inhibition at 1 µM for the items I'm about to list?
- experimental target: Human Recombinant Matriptase 2 (Homo sapiens, UniProt Q8IU80)
- Construct: purchased Enzo Life Sciences (an in-house preparation was also used) ALX-201-752-1
- measurement protocol: Matriptase 2 fluorescence based inhibition assay, Method A (100 mM TRIS pH 9, 1 mg/mL BSA)
- Assay type: biochemical
- assay context: 1 uM; Assay Used A; read-out: Mar-2 % inhibition at 1 uM

Recorded inhibition at 1 µM, per entry:
C[C@H](NC(=O)c1cc2ccc(C(=N)N)cc2n1Cc1ccc(C(N)=O)cc1)c1ccc(F)cc1 0 to 25%
CC(C)OC(=O)NC(=N)c1ccc2cc(C(=O)Nc3cccc(N4CCCC4)c3)n(Cc3ccc(C(N)=O)cc3)c2c1 25 to 50%

--- query ---
Given the entry C#CCOc1cccc(NC(=O)c2cc3ccc(C(=N)N)cc3n2Cc2ccc(C(N)=O)cc2)c1 , what inhibition at 1 µM was observed with Human Recombinant Matriptase 2 (Homo sapiens, UniProt Q8IU80)? 25 to 50%

----------
- experimental target: Human Recombinant Matriptase 2 (Homo sapiens)
- Construct: purchased Enzo Life Sciences (an in-house preparation was also used) ALX-201-752-1
- measurement protocol: Matriptase 2 fluorescence based inhibition assay, Method A (100 mM TRIS pH 9, 1 mg/mL BSA)
- Type: biochemical
- assay context: 1 uM; Assay Used A; read-out: Mar-2 % inhibition at 1 uM
quantity name: inhibition at 1 µM

compound	inhibition at 1 µM
Cc1cncc(NC(=O)c2cc3ccc(C(=N)N)cc3n2Cc2ccc(C(N)=O)cc2)c1	25 to 50%
CN(C)C(=O)COc1cccc(NC(=O)c2cc3ccc(C(=N)N)cc3n2Cc2ccc(C(N)=O)cc2)c1	0 to 25%
N=C(N)c1ccc2cc(C(=O)NCc3ccc(N4CCCC4)cc3)n(Cc3ccc(C(N)=O)cc3)c2c1	25 to 50%

Return reported inhibition at 1 µM values for all items listed beneath this line.
1. N=C(N)c1ccc2cc(C(=O)Nc3cccc(N4CCOCC4)c3)n(Cc3ccc(C(N)=O)cc3)c2c1
2. CC(C)COC(=O)NC(=N)c1ccc2cc(C(=O)Nc3cccc(N4CCCC4)c3)n(Cc3ccc(C(N)=O)cc3)c2c1

0 to 25%
0 to 25%

Reported inhibition at 1 µM, compound N=C(N)c1ccc2cc(C(=O)NC3CCC(N4CCCC4)CC3)n(Cc3ccc(C(N)=O)cc3)c2c1 (stereo not drawn) : ____ 25 to 50%

----------
- experimental target: Human Recombinant Matriptase 2 (Homo sapiens, UniProt Q8IU80)
- Construct: purchased Enzo Life Sciences (an in-house preparation was also used) ALX-201-752-1
- Sequence (Q8IU80 1-811): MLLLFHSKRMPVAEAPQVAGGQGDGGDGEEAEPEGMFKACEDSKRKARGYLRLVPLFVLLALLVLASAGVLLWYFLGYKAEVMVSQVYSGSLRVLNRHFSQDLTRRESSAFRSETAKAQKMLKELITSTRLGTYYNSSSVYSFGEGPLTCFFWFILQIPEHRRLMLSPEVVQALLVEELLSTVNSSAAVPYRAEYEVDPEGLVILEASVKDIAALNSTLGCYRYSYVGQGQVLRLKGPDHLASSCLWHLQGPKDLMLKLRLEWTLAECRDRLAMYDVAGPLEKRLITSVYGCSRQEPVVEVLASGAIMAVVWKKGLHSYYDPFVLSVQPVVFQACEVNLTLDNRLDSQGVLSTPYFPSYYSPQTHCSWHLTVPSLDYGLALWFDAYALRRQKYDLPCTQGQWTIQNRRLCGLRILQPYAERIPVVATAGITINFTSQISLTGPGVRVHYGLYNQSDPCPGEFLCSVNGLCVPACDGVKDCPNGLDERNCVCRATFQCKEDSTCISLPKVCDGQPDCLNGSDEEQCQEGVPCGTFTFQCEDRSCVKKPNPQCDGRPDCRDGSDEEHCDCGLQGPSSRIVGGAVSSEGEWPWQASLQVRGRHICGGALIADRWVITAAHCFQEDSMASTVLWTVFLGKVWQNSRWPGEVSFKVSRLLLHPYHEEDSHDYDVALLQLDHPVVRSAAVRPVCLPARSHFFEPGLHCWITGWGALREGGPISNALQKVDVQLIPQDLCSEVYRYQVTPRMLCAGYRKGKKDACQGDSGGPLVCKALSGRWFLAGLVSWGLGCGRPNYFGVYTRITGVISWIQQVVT
- measurement protocol: Matriptase 2 fluorescence based inhibition assay, Method A (100 mM TRIS pH 9, 1 mg/mL BSA)
- Format: biochemical
- assay context: 1 uM; Assay Used A; read-out: Mar-2 % inhibition at 1 uM
- Procedure: Test compounds were evaluated for their potential to inhibit Human Recombinant Matriptase 2 (in-house and commercial protein from Enzo Life Sciences—cat log -ALX-201-752-1) using fluorescence based assay. […] The enzyme and compound was preincubated for 30 mins, plate was read 60 mins after substrate addition at wavelength Ex: 360/Em: 480 nm. […]
quantity name: inhibition at 1 µM

compound	inhibition at 1 µM
CC(C)(O)[C@@H](NC(=O)c1cc2ccc(C(=N)N)cc2n1Cc1ccc(C(N)=O)cc1)c1ccccc1 [Compound I-125]	25 to 50%
N=C(N)c1ccc2cc(C(=O)NCc3cccc(CN)c3)n(CCc3ccccc3)c2c1 [Compound I-24]	0 to 25%
N=C(N)c1ccc2c(N)c(C(=O)N[C@H]3CC[C@H](N)CC3)n(CCS(=O)(=O)c3ccccc3)c2c1 [Compound I-56]	25 to 50%
N=C(N)c1ccc2cc(C(=O)Nc3cccc4cnccc34)n(Cc3ccc(C(N)=O)cc3)c2c1 [Compound I-73]	25 to 50%
N=C(N)c1ccc2cc(C(=O)Nc3ccc(F)c(N4CCCC4)c3)n(Cc3ccc(C(N)=O)cc3)c2c1 [Compound I-155]	0 to 25%

Give inhibition at 1 µM for all compounds that follow.
1. N=C(N)c1ccc2cc(C(=O)NCC3CCCCC3)n(Cc3ccc(C(F)(F)F)cc3)c2c1 [Compound I-10]
2. N=C(N)c1ccc2cc(C(=O)Nc3cc(N4CCCC4)ccc3F)n(Cc3ccc(C(N)=O)cc3)c2c1 [Compound I-152]
3. N=C(N)c1ccc2cc(C(=O)NCC3CCC(O)CC3)n(CCS(=O)(=O)c3ccccc3)c2c1 (stereo not drawn) [Compound I-52]
4. N=C(N)c1ccc2cc(C(=O)N[C@H]3CC[C@H](N)CC3)n(CCCc3ccccc3)c2c1 [Compound I-34]
5. N=C(N)c1ccc2cc(C(=O)NCC3CCNCC3)n(CCS(=O)(=O)c3ccccc3)c2c1 [Compound I-50]

25 to 50%
0 to 25%
0 to 25%
25 to 50%
50 to 75%

Could you tell me inhibition at 1 µM for each of these compounds? They are listed below.
1. N=C(N)c1ccc2cc(C(=O)Nc3ccc4c(c3)CCC4)n(Cc3ccc(C(N)=O)cc3)c2c1 [Compound I-64]
2. N=C(N)c1ccc2cc(C(=O)Nc3cccc(N4CCCC4=O)c3)n(Cc3ccc(C(N)=O)cc3)c2c1 [Compound I-156]
3. N=C(N)c1ccc2cc(C(=O)Nc3ccc(N4CCCC4)cc3)n(Cc3ccc(C(N)=O)cc3)c2c1 [Compound I-90]
4. N=C(N)c1ccc2cc(C(=O)NC3CCN(CCN)CC3)n(CCc3ccccc3)c2c1 [Compound I-28]
5. COc1ccc(NC(=O)c2cc3ccc(C(=N)N)cc3n2Cc2ccc(C(N)=O)cc2)cc1OC [Compound I-69]

["0 to 25%", "0 to 25%", "0 to 25%", "25 to 50%", "0 to 25%"]
